- Experimental Details: Tmax in Sprague-Dawley rat at 20 mg/kg, ip measured upto 24 hrs by LC-MS/MS analysis
- Format: ADME, organism-based
- Test Conditions: in vivo

Record Smiles: Cc1cc(OCCCc2c(C(=O)O)n(CCN3CCOCC3)c3c(-c4ccccc4Cn4cc(CCN(CCN5CCOCC5)S(=O)(=O)c5ccc(F)cc5)c5ccccc54)cccc23)cc(C)c1Cl
Tmax [h]: 5.33

====

- Experimental Details: Cmax in Sprague-Dawley rat at 20 mg/kg, ip measured upto 24 hrs by LC-MS/MS analysis
- Assay type: ADME, organism-based
- Test Conditions: in vivo
Assay Readout: Cmax (ng/mL)

Record Smiles: Cc1cc(OCCCc2c(C(=O)O)n(CCN3CCOCC3)c3c(-c4ccccc4Cn4cc(CCN(CCN5CCOCC5)S(=O)(=O)c5ccc(F)cc5)c5ccccc54)cccc23)cc(C)c1Cl
Assay Readout: Cmax
U: ng/mL
Quantitative Readout: 6240

====

- Experimental Details: Metabolic stability in rat plasma assessed as compound remaining measured after 120 mins by LC-MS/MS analysis
- Type: ADME, cell-free
- Test Conditions: read-out: Stability

Record Smiles: Cc1nn(C)c(COc2ccc(N3CCN(S(=O)(=O)N(C)C)CC3)cc2)c1-c1cccc2c(CCCOc3cccc4ccccc34)c(C(=O)O)n(CCN3CCOCC3)c12
U: %
remaining at 2 h: 114
//
Record Smiles: Cc1cc(OCCCc2c(C(=O)O)n(CCN3CCOCC3)c3c(-c4ccccc4Cn4cc(CCN(CCN5CCOCC5)S(=O)(=O)c5ccc(F)cc5)c5ccccc54)cccc23)cc(C)c1Cl
U: %
remaining at 2 h: 82.1

====

- Assay Target: Induced myeloid leukemia cell differentiation protein Mcl-1 (Homo sapiens)
- Sequence (Q07820 whole entry): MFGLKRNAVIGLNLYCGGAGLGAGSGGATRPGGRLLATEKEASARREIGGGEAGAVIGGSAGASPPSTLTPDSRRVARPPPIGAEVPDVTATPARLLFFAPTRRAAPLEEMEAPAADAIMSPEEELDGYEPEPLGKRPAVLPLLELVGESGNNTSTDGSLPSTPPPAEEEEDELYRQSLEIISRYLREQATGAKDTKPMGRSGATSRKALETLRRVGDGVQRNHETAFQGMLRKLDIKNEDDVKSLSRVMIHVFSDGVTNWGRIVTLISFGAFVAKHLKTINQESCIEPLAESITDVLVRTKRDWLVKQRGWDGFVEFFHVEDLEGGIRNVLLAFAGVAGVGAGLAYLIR
- Experimental Details: Binding affinity to human MCL-1 measured by competition against fluorescently labelled BH3 - Bid measured after 6 hrs by fluorescent polarization assay

Compound: CC1(C)CC[C@@H](OC(=O)/C=C/c2ccccc2)C2C(C=O)C(C=O)C[C@H](O)[C@H]21 (stereo partly specified)
U: nM
Ki: 300

====

Catalogue of molecules with associated remaining at 10 min
- Experimental Details: Metabolic stability in rat plasma assessed as compound remaining measured after 10 mins by LC-MS/MS analysis
- Type: ADME, cell-free
- Test Conditions: read-out: Stability

Record Smiles: Cc1nn(C)c(COc2ccc(N3CCN(S(=O)(=O)N(C)C)CC3)cc2)c1-c1cccc2c(CCCOc3cccc4ccccc34)c(C(=O)O)n(CCN3CCOCC3)c12
U: %
remaining at 10 min: 93.3

Record Smiles: Cc1cc(OCCCc2c(C(=O)O)n(CCN3CCOCC3)c3c(-c4ccccc4Cn4cc(CCN(CCN5CCOCC5)S(=O)(=O)c5ccc(F)cc5)c5ccccc54)cccc23)cc(C)c1Cl
U: %
remaining at 10 min: 101

====

- Experimental Details: AUC (0 to t) in Sprague-Dawley rat at 5 mg/kg, iv measured upto 24 hrs by LC-MS/MS analysis
- Format: ADME, organism-based
- Test Conditions: in vivo

Record Smiles: Cc1cc(OCCCc2c(C(=O)O)n(CCN3CCOCC3)c3c(-c4ccccc4Cn4cc(CCN(CCN5CCOCC5)S(=O)(=O)c5ccc(F)cc5)c5ccccc54)cccc23)cc(C)c1Cl
U: ng·h/mL
AUC(0-t) at 24 h: 18700

====

- Experimental Details: MRT (0 to infinity) in Sprague-Dawley rat at 20 mg/kg, ip measured upto 24 hrs by LC-MS/MS analysis
- Format: ADME, organism-based
- Test Conditions: in vivo

Record Smiles: Cc1cc(OCCCc2c(C(=O)O)n(CCN3CCOCC3)c3c(-c4ccccc4Cn4cc(CCN(CCN5CCOCC5)S(=O)(=O)c5ccc(F)cc5)c5ccccc54)cccc23)cc(C)c1Cl
U: h
MRT inf: 7.03

====

- Experimental Details: Metabolic stability in rat plasma assessed as compound remaining measured after 30 mins by LC-MS/MS analysis
- Assay type: ADME, cell-free
- Test Conditions: read-out: Stability
remaining at 0.5 h by entry:

Record Smiles: Cc1nn(C)c(COc2ccc(N3CCN(S(=O)(=O)N(C)C)CC3)cc2)c1-c1cccc2c(CCCOc3cccc4ccccc34)c(C(=O)O)n(CCN3CCOCC3)c12
U: %
remaining at 0.5 h: 104
--
Record Smiles: Cc1cc(OCCCc2c(C(=O)O)n(CCN3CCOCC3)c3c(-c4ccccc4Cn4cc(CCN(CCN5CCOCC5)S(=O)(=O)c5ccc(F)cc5)c5ccccc54)cccc23)cc(C)c1Cl
U: %
remaining at 0.5 h: 87.7

====

Dear all, this message contains IC50 results, target or system Bcl-2-like protein 1 (Homo sapiens, UniProt Q07817).

Record Smiles: CC(C)=CCC[C@]1(C)C=Cc2c(O)c3c(c(CC=C(C)C)c2O1)O[C@]12C(=C[C@@H]4C[C@H]1C(C)(C)O[C@@]2(C/C=C(/C)C(=O)O)C4=O)C3=O
U: nM
Value Comparator: =
IC50: 500

Record Smiles: Cc1cc(OCCCc2c(C(=O)O)n(CCN3CCOCC3)c3c(-c4ccccc4Cn4cc(CCNC(=O)c5ccc(OC(F)(F)F)cc5)c5ccccc54)cccc23)cc(C)c1Cl
U: nM
Value Comparator: >
IC50: 100000

====

- Experimental Details: Metabolic stability in rat liver microsomes assessed as compound remaining measured after 5 mins by LC-MS/MS analysis
- Format: ADME, Microsome
- Test Conditions: liver microsomes, read-out: Stability
Assay Readout: remaining at 5 min (%)

Record Smiles: Cc1nn(C)c(COc2ccc(N3CCN(S(=O)(=O)N(C)C)CC3)cc2)c1-c1cccc2c(CCCOc3cccc4ccccc34)c(C(=O)O)n(CCN3CCOCC3)c12
Quantitative Readout: 77.1

====

- Experimental Details: Metabolic stability in rat liver microsomes assessed as compound remaining measured after 30 mins by LC-MS/MS analysis
- Assay type: ADME, Microsome
- Test Conditions: read-out: Stability
Assay Readout: remaining at 0.5 h (%)

Record Smiles: Cc1nn(C)c(COc2ccc(N3CCN(S(=O)(=O)N(C)C)CC3)cc2)c1-c1cccc2c(CCCOc3cccc4ccccc34)c(C(=O)O)n(CCN3CCOCC3)c12
Assay Readout: remaining at 0.5 h
Quantitative Readout: 51.8
//
Record Smiles: Cc1cc(OCCCc2c(C(=O)O)n(CCN3CCOCC3)c3c(-c4ccccc4Cn4cc(CCN(CCN5CCOCC5)S(=O)(=O)c5ccc(F)cc5)c5ccccc54)cccc23)cc(C)c1Cl
Assay Readout: remaining at 0.5 h
Quantitative Readout: 53

====

- Experimental Details: MRT (0 to t) in Sprague-Dawley rat at 20 mg/kg, ip measured upto 24 hrs by LC-MS/MS analysis
- Assay type: ADME, organism-based
- Test Conditions: in vivo
Assay Readout: MRT last at 24 h

Record Smiles: Cc1cc(OCCCc2c(C(=O)O)n(CCN3CCOCC3)c3c(-c4ccccc4Cn4cc(CCN(CCN5CCOCC5)S(=O)(=O)c5ccc(F)cc5)c5ccccc54)cccc23)cc(C)c1Cl
Assay Readout: MRT last at 24 h
Result: 6.51 h

====

- Assay Target: Voltage-gated inwardly rectifying potassium channel KCNH2 (Homo sapiens, UniProt Q12809)
- Sequence (Q12809 whole entry): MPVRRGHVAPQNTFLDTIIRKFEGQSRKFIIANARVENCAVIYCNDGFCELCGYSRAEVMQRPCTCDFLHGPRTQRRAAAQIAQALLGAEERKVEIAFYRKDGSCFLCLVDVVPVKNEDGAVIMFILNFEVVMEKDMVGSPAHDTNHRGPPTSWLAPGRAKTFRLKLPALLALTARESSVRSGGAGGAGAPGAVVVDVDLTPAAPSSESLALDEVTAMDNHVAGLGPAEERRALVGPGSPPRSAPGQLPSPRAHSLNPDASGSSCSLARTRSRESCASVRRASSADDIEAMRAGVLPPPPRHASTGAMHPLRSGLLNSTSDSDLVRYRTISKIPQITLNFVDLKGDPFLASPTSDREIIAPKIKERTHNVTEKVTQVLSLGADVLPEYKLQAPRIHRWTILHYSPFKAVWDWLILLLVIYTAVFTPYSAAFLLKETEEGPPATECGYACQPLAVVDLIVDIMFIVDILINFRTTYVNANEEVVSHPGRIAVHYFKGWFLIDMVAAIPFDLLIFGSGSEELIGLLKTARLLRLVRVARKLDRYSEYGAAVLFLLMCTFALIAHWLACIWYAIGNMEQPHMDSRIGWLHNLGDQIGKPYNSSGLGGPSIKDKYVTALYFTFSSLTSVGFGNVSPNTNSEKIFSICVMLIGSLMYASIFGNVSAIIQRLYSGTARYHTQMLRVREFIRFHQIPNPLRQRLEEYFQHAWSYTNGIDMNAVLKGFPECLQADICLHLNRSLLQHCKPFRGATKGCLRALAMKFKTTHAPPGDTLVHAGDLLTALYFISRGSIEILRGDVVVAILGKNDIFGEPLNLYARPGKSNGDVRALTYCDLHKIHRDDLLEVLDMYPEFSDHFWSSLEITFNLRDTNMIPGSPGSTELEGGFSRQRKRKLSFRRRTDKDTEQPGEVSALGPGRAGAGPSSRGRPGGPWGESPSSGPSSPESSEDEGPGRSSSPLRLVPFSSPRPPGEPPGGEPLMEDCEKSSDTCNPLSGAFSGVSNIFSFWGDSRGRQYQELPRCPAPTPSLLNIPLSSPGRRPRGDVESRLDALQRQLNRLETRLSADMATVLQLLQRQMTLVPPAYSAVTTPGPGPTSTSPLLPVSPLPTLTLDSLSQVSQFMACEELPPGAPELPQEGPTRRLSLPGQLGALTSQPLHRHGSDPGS
Assay Readout: IC50

Record Smiles: Cc1cc(OCCCc2c(C(=O)O)n(CCN3CCOCC3)c3c(-c4ccccc4Cn4cc(CCN(CCN5CCOCC5)S(=O)(=O)c5ccc(F)cc5)c5ccccc54)cccc23)cc(C)c1Cl
Result: > 50 µM

====

- Experimental Details: MRT (0 to infinity) in Sprague-Dawley rat at 5 mg/kg, iv measured upto 24 hrs by LC-MS/MS analysis
- Assay type: ADME, organism-based
- Test Conditions: in vivo

Record Smiles: Cc1cc(OCCCc2c(C(=O)O)n(CCN3CCOCC3)c3c(-c4ccccc4Cn4cc(CCN(CCN5CCOCC5)S(=O)(=O)c5ccc(F)cc5)c5ccccc54)cccc23)cc(C)c1Cl
MRT inf / h: 1.3

====

- Experimental Details: Bioavailability in Sprague-Dawley rat at 20 mg/kg, ip measured upto 24 hrs by LC-MS/MS analysis
- Assay type: ADME, organism-based
- Test Conditions: in vivo

Record Smiles: Cc1cc(OCCCc2c(C(=O)O)n(CCN3CCOCC3)c3c(-c4ccccc4Cn4cc(CCN(CCN5CCOCC5)S(=O)(=O)c5ccc(F)cc5)c5ccccc54)cccc23)cc(C)c1Cl
bioavailability: 74%

====

- Experimental Details: AUC (0 to t) in Sprague-Dawley rat at 20 mg/kg, ip measured upto 24 hrs by LC-MS/MS analysis
- Format: ADME, organism-based
- Test Conditions: in vivo
Assay Readout: AUC(0-t) at 24 h (µg·h/mL)

Record Smiles: Cc1cc(OCCCc2c(C(=O)O)n(CCN3CCOCC3)c3c(-c4ccccc4Cn4cc(CCN(CCN5CCOCC5)S(=O)(=O)c5ccc(F)cc5)c5ccccc54)cccc23)cc(C)c1Cl
Assay Readout: AUC(0-t) at 24 h
Quantitative Readout: 54.6

====

These records show IC50 for Bcl-2-related protein A1 (Homo sapiens, UniProt Q16548).

Record Smiles: Cc1nn(C)c(COc2ccc(N3CCN(S(=O)(=O)N(C)C)CC3)cc2)c1-c1cccc2c(CCCOc3cccc4ccccc34)c(C(=O)O)n(CCN3CCOCC3)c12
IC50: > 10 µM
//
Record Smiles: Cc1cc(OCCCc2c(C(=O)O)n(CCN3CCOCC3)c3c(-c4ccccc4Cn4cc(CCNC(=O)c5ccc(Cl)cc5)c5ccccc54)cccc23)cc(C)c1Cl
IC50: > 10 µM
//
Record Smiles: CC(C)=CCC[C@]1(C)C=Cc2c(O)c3c(c(CC=C(C)C)c2O1)O[C@]12C(=C[C@@H]4C[C@H]1C(C)(C)O[C@@]2(C/C=C(/C)C(=O)O)C4=O)C3=O
IC50: 0.5 µM
//
Record Smiles: Cc1cc(OCCCc2c(C(=O)O)n(CCN3CCOCC3)c3c(-c4ccccc4Cn4cc(CCNC(=O)c5ccc(F)cc5)c5ccccc54)cccc23)cc(C)c1Cl
IC50: > 10 µM
